# Tested on: HOP-62 NSCLC
# measurement_description: NCI-60 one-dose screen, 48 h (100 = growth as untreated, 0 = no growth, -100 = all killed)
# study_conditions: 10 µM unless noted
About 83,000 compounds went through this panel and 20% of them were active in at least one assay; those are over-represented in the sample as a whole.
observable: growth (%)

| molecule | target_of_assay | quantitative_readout |
| --- | --- | --- |
| Cc1nc(N)nc(SCc2ccccc2)c1Br | HOP-62 NSCLC | 83.1 |
| COc1cc(Cn2cc3c(c2)-c2onc(CO)c2CC3)cc(OC)c1OC | HOP-62 NSCLC | 85.7 |
| Cc1cc(O[C@@H]2O[C@@H](C)[C@H](O)[C@@H](O)[C@H]2O)c2c3c(c(O[C@@H]4O[C@@H](C)[C@H](O)[C@@H](O)[C@H]4O)cc2c1)C(=O)c1c(O)cccc1C3=O | HOP-62 NSCLC | 77.4 |
| NS(=O)(=O)c1ccc(-n2nc(-c3ccc(Cl)cc3)ccc2=O)cc1 | HOP-62 NSCLC | 94.3 |
| CCCCCCCC(=O)SCC/C=C/[C@@H]1CC(=O)NCc2nc(cs2)C2=N[C@@](C)(CS2)C(=O)N[C@@H](C(C)C)C(=O)N1 | HOP-62 NSCLC | 12.1 |
| COc1ccc(-c2nnc(NC(=O)CN3CCN(c4cc5c(cc4F)c(=O)c(C(=O)O)cn5C4CC4)CC3)s2)cc1OC | HOP-62 NSCLC | 95.6 |
| Fc1ccc(Nc2ncnc3ccc(-c4cn[nH]c4)cc23)cc1Cl | HOP-62 NSCLC | 66.2 |
| COc1ccc2c(c1)/C(=C/c1c(-c3cc(OC)c(OC)c(OC)c3Br)nc3sccn13)C(=O)N2 | HOP-62 NSCLC | 59.2 |
| N#CC1=C(N)Oc2c(ccc3ccccc23)C1c1cc(=O)oc2ccc(Cl)cc12 (stereo not given) | HOP-62 NSCLC | 33.3 |
| O=C(Nc1cccc(-n2ccc3c(NC(=O)c4ccccc4)ncnc32)c1)Nc1ccc(Cl)c(C(F)(F)F)c1 | HOP-62 NSCLC | 56.8 |
| CCN1CCN(Cc2ccc(NC(=O)Nc3cccc(-n4ccc5c(NC(=O)c6ccccc6)nccc54)c3)cc2C(F)(F)F)CC1 | HOP-62 NSCLC | 72.6 |
| COc1ccc(CCNC=O)cc1OC | HOP-62 NSCLC | 107 |
| O=[N+]([O-])c1ccc(NS(=O)(=O)c2cc(Cl)ccc2Cl)c2ccccc12 | HOP-62 NSCLC | 65.7 |
| C=CC(=O)Nc1cccc(Nc2nc(Nc3ccc(OCCOC(F)F)cc3)ncc2F)c1 | HOP-62 NSCLC | 29.1 |
| Cc1cccc(NCS(=O)(=O)O)c1 | HOP-62 NSCLC | 92.4 |
| FC(F)(F)c1cn(CCN2CCOCC2)c2ncnc(Cl)c12 | HOP-62 NSCLC | 55.9 |
| O=c1c2ccccc2sc2c(NCCCNCCO)nc3ccccc3c12 | HOP-62 NSCLC | 36.5 |
| CCOC(=O)C1=C(N)Oc2cc(OC)ccc2C1c1ccc(F)c(F)c1 (stereo not given) | HOP-62 NSCLC | 37.7 |
| Cc1cc[n+](CCCC[n+]2ccc(C)cc2)cc1 | HOP-62 NSCLC | 108 |
| CC(=S)Nc1ccccc1 | HOP-62 NSCLC | 82.2 |
